// values below are reported pIC50
Tested on: 324938-238-R-J1-PDC complex spheroid growth, % test/control;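 further: spheroids exposed to agents for seven days before viability read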
testDescription: Anticancer human tumor 324938-238-R-J1-PDC patient-derived bladder carcinoma cell line growth inhibition [AhR]
cond: curve of first compound; second compound 0.316 µM
Would you please state pIC50, meaning minus log10 of the concentration in mol/L, as a bare number?

Example cases with answers are listed next.
{"compound": "CC1COCCN1c1cc(C2(S(C)(=N)=O)CC2)nc(-c2ccnc3[nH]ccc23)n1 (stereo unspecified) + Cc1ccccc1N=Nc1ccc(NC(=O)c2ccnn2C)c(C)c1", "endpointName": "pIC50", "result": 5.33}
{"compound": "O=C(C=Cn1cnc(-c2cc(C(F)(F)F)cc(C(F)(F)F)c2)n1)NNc1cnccn1 + Cc1cncc(-c2nc(NCCc3c[nH]c4ccccc34)c3ncn(C(C)C)c3n2)c1", "endpointName": "pIC50", "result": 6.19}

Next compound, please.
Exercise: Look up pIC50 of CC(C)CC(NC(=O)C(Cc1ccccc1)NC(=O)c1cnccn1)B(O)O (stereo unspecified) + Cc1ccccc1N=Nc1ccc(NC(=O)c2ccnn2C)c(C)c1 and report it.
Key: 8.31
